Target of assay: T1, IFIT5 K150M (UniProt Q13325 1-482, K150M)
T1 sequence: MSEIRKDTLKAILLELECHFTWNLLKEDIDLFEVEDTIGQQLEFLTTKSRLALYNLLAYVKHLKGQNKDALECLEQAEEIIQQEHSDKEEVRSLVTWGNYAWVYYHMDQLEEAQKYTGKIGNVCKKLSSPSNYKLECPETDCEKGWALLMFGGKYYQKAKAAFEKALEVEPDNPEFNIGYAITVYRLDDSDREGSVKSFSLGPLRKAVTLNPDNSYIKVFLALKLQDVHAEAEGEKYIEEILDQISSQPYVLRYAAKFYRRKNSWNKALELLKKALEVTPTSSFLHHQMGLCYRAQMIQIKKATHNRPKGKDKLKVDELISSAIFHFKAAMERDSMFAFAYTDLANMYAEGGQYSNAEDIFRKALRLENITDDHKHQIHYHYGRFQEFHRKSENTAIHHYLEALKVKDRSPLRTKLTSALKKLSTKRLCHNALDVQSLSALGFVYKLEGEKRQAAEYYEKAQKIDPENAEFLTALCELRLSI
Assay method text: MST; apparent; 1 mM Mg2+; MST: PBS, 5% glycerol, 0.5 mM TCEP, 0.05% Tween20, +/-1 mM MgCl2 (K150M always with 1 mM MgCl2), 10 nM Cy5-RNA, 22 C, 10 min incubation; pH not stated
Assay conditions: protein: recombinant; tags: N-terminal His tag (pETG10a); label: 3'-Cy5; single strand, 12 nt
Readout name: Kd (nM)

1) AAAAAGGAAGGU (ssRNA, 5'-triphosphate) [5'-ppp-AAAAAGGAAGGU-Cy5] ... 204
